Reference source for all entries: PubChem BioAssay AID504520

- Test system: LYPLA1
- ASSAY NAME: LYPLA1 inhibition and serine hydrolase selectivity, late-stage follow-up, fluorescence, gel-based ABPP, mouse proteome (AID 504520);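 further: soluble proteome from BW5147 murine T cells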
- PROTOCOL CONDITIONS: FP-rhodamine fluorescence, at 0.75 µM
The source made the active and inactive calls. How the calls were made is not given here.
Give one outcome, nothing more. List: active, inactive

Prompt: I'd appreciate the recorded outcome for O=C(N1CCCCC1)n1ncc(C(O)c2ccccc2)n1 (stereo unspecified) from this test.
Response: active

Prompt: I'd appreciate the recorded outcome for `O=C(N(c1ccccc1)c1ccccc1)n1ncc(C(O)(c2ccccc2)c2ccccc2)n1` from this test.
Response: inactive

Prompt: I'd appreciate the recorded outcome for O=C(OC(c1ccccc1)c1cnn(C(=O)N2CCCCC2)n1)N1CCCCC1 (stereo unspecified) from this test.
Response: active

Prompt: I'd appreciate the recorded outcome for COCCCC1CCCCN1C(=O)n1ncc(C(O)(c2ccccc2)c2ccccc2)n1 (stereo unspecified) from this test.
Response: inactive

Prompt: I'd appreciate the recorded outcome for `O=C(N(c1ccccc1)c1ccccc1)n1ncc(-c2cc(F)cc(F)c2)n1` from this test.
Response: inactive

Prompt: I'd appreciate the recorded outcome for CCC1CCCCN1C(=O)n1ncc(C(O)(c2ccccc2)c2ccccc2)n1 (stereo unspecified) from this test.
Response: inactive
